We begin with a simple list: items and their reported MIC.
Test system: Escherichia coli
method description: Antibacterial activity against Escherichia coli TOP10 harboring beta-lactamase KPC-4 by agar dilution method
Assay type: functional
measure: MIC (µg/mL)

1) CO/N=C(\C(=O)N[C@@H]1C(=O)N2C(C(=O)[O-])=C(C[N+]3(C)CCCC3)CS[C@H]12)c1csc(N)n1 = 8
2) C[C@@H](O)[C@H]1C(=O)N2C(C(=O)O)=C(S[C@@H]3CN[C@H](C(=O)Nc4cccc(C(=O)O)c4)C3)[C@H](C)[C@H]12 = 2
3) C[C@@H](O)[C@H]1C(=O)N2C(C(=O)O)=C(SCCN=CN)C[C@H]12 [IMIPENEM ANHYDROUS] = 2
4) C[C@@H](O)[C@H]1C(=O)N2C(C(=O)O)=C(S[C@@H]3CN[C@H](C(=O)N(C)C)C3)[C@H](C)[C@H]12 = 1
5) CO[C@@]1(NC(=O)Cc2cccs2)C(=O)N2C(C(=O)O)=C(COC(N)=O)CS[C@@H]21 = 8
6) CO/N=C(\C(=O)N[C@@H]1C(=O)N2C(C(=O)O)=C(COC(C)=O)CS[C@H]12)c1csc(N)n1 = 64
